B1: HDV Ribozyme (parent)
chain: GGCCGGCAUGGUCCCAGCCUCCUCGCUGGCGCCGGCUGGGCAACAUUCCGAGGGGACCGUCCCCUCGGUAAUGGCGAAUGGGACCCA

# Variants of: B1
# assay procedure: self-cleavage, relative activity (ratio to wild type); higher = more cleavage; co-transcriptional
// reported self-cleavage for each item listed

mutation	self-cleavage
C7U U37C	1.14
G40U A78U	0.191
C61U G76A	1.19
A56C	1
G6C C33G	0.185
C41A U72C	0.653

q: Consider the variant G31U C44A . State its measured self-cleavage.
a: 0.0707

q: Consider the variant C63G U72A . State its measured self-cleavage.
a: 0.458

q: Consider the variant G53A A78U . State its measured self-cleavage.
a: 0.277

q: Consider the variant G11U G35C . State its measured self-cleavage.
a: 0.0449

q: Consider the variant C49U C85G . State its measured self-cleavage.
a: 0.876

q: Consider the variant U27A U69A . State its measured self-cleavage.
a: 0.831

q: Consider the variant G6C G52A . State its measured self-cleavage.
a: 0.369

q: Consider the variant C4A C14G . State its measured self-cleavage.
a: 0.175

q: Consider the variant G28C G34C . State its measured self-cleavage.
a: 0.156

q: Consider the variant C21A U65G . State its measured self-cleavage.
a: 0.0665

q: Consider the variant C19U C24U . State its measured self-cleavage.
a: 0.101

q: Consider the variant G31C G40C . State its measured self-cleavage.
a: 0.0346

q: Consider the variant U27A G80C . State its measured self-cleavage.
a: 0.469

q: Consider the variant U72A A83C . State its measured self-cleavage.
a: 0.219

q: Consider the variant C26A C57G . State its measured self-cleavage.
a: 1.1

q: Consider the variant G17U U27G . State its measured self-cleavage.
a: 0.522

q: Consider the variant U37G U72G . State its measured self-cleavage.
a: 0.115

q: Consider the variant C49G A87C . State its measured self-cleavage.
a: 0.672
